GI50 values, listed per item
- System: A549
- experimentSummary: NCI tumour cell line growth inhibition, 48 h
Activity calls are given as the source filed them. Cut-off read from the data, not from the text of the source: active = GI50 up to about 1.1 µM and inactive = higher.

molecule	result
CC1=NOC(=O)/C1=C/c1ccccc1O	> 100 µM (inactive)

Qu. // fetch GI50; item: CNc1ccc(Cl)cc1S(=O)(=O)c1ccccc1[N+](=O)[O-] ; system: A549
Ans. > 100 µM (inactive)

Qu. Quote A549 GI50 for entry CC(=O)Nc1cc2nc3n(c2cc1C)CCC3OC(C)=O (configuration not stated) .
Ans. > 100 µM (inactive)

Qu. For A549, give the measured GI50 of the entry O=C(CCc1ccccc1)On1c(-c2ccccc2)nc2ccccc2c1=S
Ans. 3.65 µM (inactive)

Qu. Return reported GI50 for target or system A549, item CSC(=N\c1ccccc1)/N=C(\SCc1ccccc1)N(C)C .
Ans. 1.75 µM (inactive)

Qu. # return GI50 of C#CCSc1cnc2ccccc2c1Sc1c[nH]c2ccccc2c1=O (system: A549)
Ans. 14.4 µM (inactive)

Qu. For A549, give the measured GI50 of the entry CC(C)C12C=CC(C)(CC1)n1c(=O)c3cc4ccccc4cc3c(=O)n12 (configuration not stated)
Ans. 45.4 µM (inactive)

Qu. # return GI50 of COC(=O)C1(Cc2ccc3c(c2)CCC3)Cc2ccccc2C1=O (configuration not stated) (system: A549)
Ans. 21.1 µM (inactive)

Qu. Enter recorded GI50 with A549 for O=C(CC1(O)C(=O)Nc2ccccc21)c1ccc(Cl)c(Cl)c1 (configuration not stated) here.
Ans. > 100 µM (inactive)

* * *

- Tested on: HL-60
- experimentSummary: NCI tumour cell line growth inhibition, 48 h
Active and inactive are the calls of the source. Cut-off read from the data, not from the text of the source: active = GI50 up to about 1.1 µM and inactive = higher.
Your response should consist of one outcome taken from active, inactive

molecule	cat
O=C(CCC(=O)c1ccsc1)c1ccsc1	inactive

Qu. // return assay outcome for CN(N=O)C(=O)Nc1c[nH]c(=O)[nH]c1=O
Ans. inactive

Qu. GET /call?item= CC(C)C[C@H]1[C@@H](OCc2ccccc2)COS(=O)(=O)N1[C@H](C)c1ccccc1 returns the recorded outcome of this test.
Ans. inactive

Qu. Which result was noted for this molecule in the test: CC1=CC(=O)NP(=O)(C23CC4CC(CC(C4)C2)C3)N1 (stereo not given)
Ans. inactive

Qu. // param item: O=c1[nH]cc(OCC(F)(F)F)c(=O)[nH]1 ; yields the recorded call
Ans. inactive

Qu. Each molecule tested received a call. Report the one for O=C(O)[C@@H]1C2CC([C@@H]1C(=O)O)[C@H](N1C(=O)CCC1=O)[C@@H]2Br (stereo not given in full) .
Ans. inactive

Qu. // param item: CCCCCCCCCC/C=C/CC(=O)SCCNC(=O)CCNC(=O)[C@@H](O)C(C)(C)COP(=O)(O)OP(=O)(O)OCC1OC(n2cnc3c(N)ncnc32)C(O)C1OP(=O)(O)O (stereo not given in full) ; yields the recorded call
Ans. inactive

Qu. How was CCC12CCCN3CCc4c(n(c5ccccc45)C(O)(C(=O)OC)C1)C32 (stereo not given) classified in this test?
Ans. inactive

Qu. Look up the recorded call for CCCCCCCCCCCCCC(=O)OCC1OC(=O)CC1O (stereo not given) in this test.
Ans. inactive

Qu. For CCCCCCCCCCCCCCCC(=O)OCC1OC(n2cc(F)c(=O)[nH]c2=O)C(NC(=O)N(CCCl)N=O)C(O)C1O (stereo not given) , which call appears in the assay record?
Ans. active

Qu. // outcome(item) with item = O=C1NCN(c2ccccc2)C12CCN(CCCN1CCN(CCOC(c3ccc(F)cc3)c3ccc(F)cc3)CC1)CC2
Ans. inactive

Qu. Dear colleague, could you share the recorded outcome for CC1(C)CC(=O)c2c(oc3cc(O)c(O)cc23)C1 when you have a moment?
Ans. inactive

Qu. Answer briefly: the call reported for COc1cccc2c1C(=O)c1c(O)c3c(c(O)c1C2=O)C[C@@](O)(C(C)O)C[C@@H]3OC1CC(N)C(O)C(C)O1 (stereo not given in full) in this assay.
Ans. active

Qu. Answer briefly: the call reported for COc1ccc2c(c1)C1(C=N2)CCN(C(C)=O)CC1 in this assay.
Ans. inactive

Qu. Write down the call the test reported for this molecule. Item: Cc1cc(N)c2ccccc2[n+]1CCCCCCCCCC[n+]1c(C)cc(N)c2ccccc21 [DEQUALINIUM CHLORIDE]
Ans. active

Qu. Name the outcome recorded for O=C(NC12CC3CC(CC(C3)C1)C2)C(=O)c1c[nH]c2ccc([N+](=O)[O-])cc12 in the assay.
Ans. inactive

Qu. Tell me the recorded outcome of this test for Cc1ccn2c(c1)nc1nc3ccccc3nc12 .
Ans. inactive

Qu. Would you mind telling me which call this test gave COc1ccc(N2C(=O)C(C)SC2c2cc3cc(Br)ccc3nc2Cl)cc1 (stereo not given) ?
Ans. inactive

Qu. Check the results log: what was the call for O=C1CSC(c2c(O)ccc3ccccc23)N1n1c(S)nnc(/C=C/c2c(O)ccc3ccccc23)c1=O (stereo not given) ?
Ans. active
